experimental-details: Partition coefficient (logP)
Format: physicochemical
stated-conditions: octanol/water; read-out: logP
logP listing for selected compounds.
Kindly provide the number alone.

Reference set (3 entries):
Oc1ccc(-n2ccnc2)cc1 :: 0.94
Clc1ccc(COC(Cn2ccnc2)c2ccc(Cl)cc2Cl)c(Cl)c1 (centres undefined) :: 5.84
c1ccc(Cn2ccnc2)cc1 :: 2.01

Q. Item under review: `Fc1ccc(-n2ccnc2)cc1` . Reported logP?
A. 1.67

Q. If you can, please state the reported logP value of `c1ccc(-n2ccnc2)cc1` .
A. 1.48

###

tested-target: Epoxide hydrolase 1 (Rattus norvegicus) (UniProt P07687)
Sequence (whole entry): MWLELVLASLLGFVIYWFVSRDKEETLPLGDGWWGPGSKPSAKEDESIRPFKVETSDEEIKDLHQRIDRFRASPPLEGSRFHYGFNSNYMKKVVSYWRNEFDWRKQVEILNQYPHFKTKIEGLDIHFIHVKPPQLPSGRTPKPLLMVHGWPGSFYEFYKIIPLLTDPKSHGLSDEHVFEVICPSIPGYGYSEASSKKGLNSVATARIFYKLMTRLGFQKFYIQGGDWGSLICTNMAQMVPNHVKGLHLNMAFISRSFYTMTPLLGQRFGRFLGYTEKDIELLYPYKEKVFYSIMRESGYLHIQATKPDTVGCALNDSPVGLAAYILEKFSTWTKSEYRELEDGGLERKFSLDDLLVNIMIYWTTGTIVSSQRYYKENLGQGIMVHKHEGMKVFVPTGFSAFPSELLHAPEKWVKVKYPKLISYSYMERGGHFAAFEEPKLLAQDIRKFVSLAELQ
experimental-details: Enhanced styrene oxide hydrolase activity pH 8.7
Type: functional
The label is 1 (yes) for E100 below 300 µM and 0 (no) for E100 equal to or exceeding 300 µM.

Previously resolved entries follow.
Clc1ccccc1C(c1ccccc1)(c1ccccc1)n1ccnc1 [CLOTRIMAZOLE] :: 1 (yes)
c1ccc(-n2ccnc2)cc1 :: 0 (no)
Cn1ccnc1 [1-METHYLIMIDAZOLE] :: 0 (no)
Clc1ccc(COC(Cn2ccnc2)c2ccc(Cl)cc2Cl)c(Cl)c1 (stereo unspecified) [MICONAZOLE] :: 1 (yes)
O=[N+]([O-])c1ccc(-n2ccnc2)cc1 :: 0 (no)
Fc1ccc(-n2ccnc2)cc1 :: 0 (no)
CCn1ccnc1 :: 0 (no)
CC(=O)N1CCN(c2ccc(OCC3COC(Cn4ccnc4)(c4ccc(Cl)cc4Cl)O3)cc2)CC1 (stereo unspecified) :: 1 (yes)
c1c[nH]cn1 [IMIDAZOLE] :: 0 (no)
c1ccc(Cn2ccnc2)cc1 [BENZYLIMIDAZOLE] :: 1 (yes)

Could you now look at the following compound, please?
Q. Say whether its E100 is strictly beneath 300 µM. Entry: `Oc1ccc(-n2ccnc2)cc1`
A. 1 (yes)

###

Listing: Log 1/E100 of selected molecules
tested-target: Epoxide hydrolase 1 (Rattus norvegicus) (UniProt P07687)
experimental-details: Enhancement of epoxide hydrolase activity

Reference set, count: 3
O=[N+]([O-])c1ccc(-n2ccnc2)cc1 :: 2.4
c1ccc(Cn2ccnc2)cc1 :: 3.64
Cn1ccnc1 :: 1.94

Q. Return reported Log 1/E100; argument: Clc1ccc(COC(Cn2ccnc2)c2ccc(Cl)cc2Cl)c(Cl)c1 (configuration not stated)
A. 4.08

###

experimental-details: Partition coefficient (logP)
Format: physicochemical
stated-conditions: octanol/water; read-out: logP
Below, each of the molecules is paired with its reported logP value.

// worked examples, logP included
c1c[nH]cn1 :: -0.42
Cn1ccnc1 :: 0.28
O=[N+]([O-])c1ccc(-n2ccnc2)cc1 :: 1.19

Please examine the following record next.
Q. Give its logP value. Item: `CCn1ccnc1`
A. 0.81

###

tested-target: Epoxide hydrolase 1 (Rattus norvegicus) (UniProt P07687)
Sequence (whole entry): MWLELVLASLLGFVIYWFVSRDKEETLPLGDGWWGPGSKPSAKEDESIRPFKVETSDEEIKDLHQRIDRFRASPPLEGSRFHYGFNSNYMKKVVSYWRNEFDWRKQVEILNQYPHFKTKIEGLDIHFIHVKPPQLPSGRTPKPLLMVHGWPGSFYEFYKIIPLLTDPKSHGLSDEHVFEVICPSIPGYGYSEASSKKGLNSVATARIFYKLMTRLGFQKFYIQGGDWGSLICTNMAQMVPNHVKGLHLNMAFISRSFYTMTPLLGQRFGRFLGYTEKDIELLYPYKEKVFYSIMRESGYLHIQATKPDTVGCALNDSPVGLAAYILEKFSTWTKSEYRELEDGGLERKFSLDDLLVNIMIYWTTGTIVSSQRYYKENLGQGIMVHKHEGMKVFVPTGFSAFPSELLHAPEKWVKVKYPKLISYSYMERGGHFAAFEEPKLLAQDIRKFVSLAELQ
experimental-details: Enhancement of epoxide hydrolase activity
measure: Log 1/E100
Form rule: numeric answer, no unit written next to it.

Some compounds with known Log 1/E100 results, for comparison:
Fc1ccc(-n2ccnc2)cc1 :: 3.26
c1ccc(-n2ccnc2)cc1 :: 3.48

Q. If you can, please state the reported Log 1/E100 value of `Oc1ccc(-n2ccnc2)cc1` .
A. 3.62

The measurements presented in this section are drawn from ChEMBL document CHEMBL1122923.
